biological target: HIV-1 protease (Human immunodeficiency virus type 1 group M subtype B, UniProt P04585); construct: The protease (or proteinase), consisting of only 99 amino acids, is among the smallest enzymes known; assay: In vitro HIV protease inhibitory assay (HIV Protease FITC Assay); type: biochemical; conditions: HIV-1 Dose 1.100 uM; read-out: HIV-1 Protease % Inhib
# maps each entry to its inhibition at 1.1 µM
measuredMetric: inhibition at 1.1 µM

- compound: "O=c1oc(CC2CCOCC2)cc(O)c1C(c1ccccc1)C1CC1 (centres unmarked)"
  experimentalResult: "< 10%"
- compound: "CCCC1(CCCc2ccccc2)CC(O)=C(C(C=Cc2ccccc2)c2ccccc2)C(=O)O1 (centres unmarked)"
  experimentalResult: "52.8%"
- compound: "O=c1oc(CCc2ccc(Br)cc2)cc(O)c1C(c1ccccc1)C1CC1 (centres unmarked)"
  experimentalResult: "18.4%"
- compound: "CCC(Cc1cccnc1)c1cc(O)c(C(c2ccccc2)C2CC2)c(=O)o1 (centres unmarked)"
  experimentalResult: "67.3%"
- compound: "O=c1oc(CCc2ccc(Cl)cc2)cc(O)c1C(c1ccccc1)C1CC1 (centres unmarked)"
  experimentalResult: "< 10%"

* * *

target: UniProt P04585
pIC50: −log10 of the molar value.
measuredMetric: pIC50

- compound: "O=c1oc(CCCc2ccccc2)cc(O)c1C(c1ccccc1)C1CC1 (stereo not shown)"
  experimentalResult: 5.02
- compound: "O=c1oc(CCc2ccccc2)cc(O)c1C(c1ccccc1)C1CC1 (stereo not shown)"
  experimentalResult: 5.20
- compound: "CCC(CC)c1cc(O)c(C(CC)c2ccccc2)c(=O)o1 (stereo not shown)"
  experimentalResult: 5.66
- compound: "CCC(c1ccccc1)c1c(O)cc(CCc2ccccc2F)oc1=O (stereo not shown)"
  experimentalResult: 5.19
- compound: "CCC(c1ccccc1)c1c(O)cc(CCCc2ccccc2)oc1=O (stereo not shown)"
  experimentalResult: 5.41
- compound: "C=CC(c1ccccc1)c1c(O)cc(CCc2ccccc2)oc1=O (stereo not shown)"
  experimentalResult: 5.27
- compound: "CCC(Cc1ccccc1)c1cc(O)c(C(CC)c2ccccc2)c(=O)o1 (stereo not shown)"
  experimentalResult: 5.89
- compound: "CCC(c1ccccc1)c1c(O)cc(C=Cc2ccc(OC)cc2)oc1=O (stereo not shown)"
  experimentalResult: 5.01
- compound: "CCC(CC)c1cc(O)c(C(c2ccccc2)C2CC2)c(=O)o1 (stereo not shown)"
  experimentalResult: 5.74
- compound: "O=c1oc(C(Cc2ccccc2)Cc2ccccc2)cc(O)c1C(c1ccccc1)C1CC1 (stereo not shown)"
  experimentalResult: 5.52

* * *

molecular target: HIV-1 protease (Human immunodeficiency virus type 1 group M subtype B); construct: The protease (or proteinase), consisting of only 99 amino acids, is among the smallest enzymes known; experiment: In vitro HIV protease inhibitory assay (HIV Protease FITC Assay); assay type: biochemical; settings: HIV-1 Dose 11.000 uM; read-out: HIV-1 Protease % Inhib
measuredMetric: inhibition at 11 µM (%)

- molecule: "CCC(C1=C(O)CC2(CCC(=O)CC2)OC1=O)c1ccccc1 (stereo not drawn)"
  experimentalResult: 91.5
- molecule: "CCC(CC1CCCCO1)c1cc(O)c(C(c2ccccc2)C2CC2)c(=O)o1 (stereo not drawn)"
  experimentalResult: 116
- molecule: "CCC(CC1OCCO1)c1cc(O)c(C(c2ccccc2)C2CC2)c(=O)o1 (stereo not drawn)"
  experimentalResult: 113
- molecule: "CCC(CC)c1oc(=O)c(C(c2ccccc2)C2CC2)c(O)c1CCOCCOC (stereo not drawn)"
  experimentalResult: 71.2
- molecule: "O=c1oc(C(Cc2ccccc2)Cc2ccccn2)cc(O)c1C(c1ccccc1)C1CC1 (stereo not drawn)"
  experimentalResult: 94.2
- molecule: "Cc1nc(CCc2cc(O)c(C(c3ccccc3)C3CC3)c(=O)o2)cs1 (stereo not drawn)"
  experimentalResult: 80.5
- molecule: "CCC(CC1CCCOC1)c1cc(O)c(C(c2ccccc2)C2CC2)c(=O)o1 (stereo not drawn)"
  experimentalResult: 111
- molecule: "O=c1oc(CCc2ccc3ccccc3n2)cc(O)c1C(c1ccccc1)C1CC1 (stereo not drawn)"
  experimentalResult: 50.7
- molecule: "CCC(Cc1ccco1)c1cc(O)c(C(c2ccccc2)C2CC2)c(=O)o1 (stereo not drawn)"
  experimentalResult: 102

* * *

target: HIV-1 protease (Human immunodeficiency virus type 1 group M subtype B); construct: The protease (or proteinase), consisting of only 99 amino acids, is among the smallest enzymes known; assay: In vitro HIV protease inhibitory assay (HIV Protease FITC Assay); type: biochemical; details: HIV-1 Dose 3.300 uM; read-out: HIV-1 Protease % Inhib

- molecule: "CCC(C1=C(O)CC2(CCC(O)CC2)OC1=O)c1ccccc1 (centres unmarked) [Example 116]"
  studyTarget: "HIV-1 protease (Human immunodeficiency virus type 1 group M subtype B)"
  unitsSymbol: "%"
  inhibition at 3.3 µM: 31.1
- molecule: "CCC(Cc1ccccc1)c1cc(O)c(C(c2cccc(NS(=O)(=O)c3ccc(C)cc3)c2)C2CC2)c(=O)o1 (centres unmarked) [Example 246]"
  studyTarget: "HIV-1 protease (Human immunodeficiency virus type 1 group M subtype B)"
  unitsSymbol: "%"
  inhibition at 3.3 µM: 92.3
- molecule: "CCC(CC1CCCN1S(=O)(=O)c1ccc(C)cc1)c1cc(O)c(C(c2ccccc2)C2CC2)c(=O)o1 (centres unmarked) [Example 138]"
  studyTarget: "HIV-1 protease (Human immunodeficiency virus type 1 group M subtype B)"
  unitsSymbol: "%"
  inhibition at 3.3 µM: 63.9
- molecule: "O=C1OC(CCc2ccccc2)(CCc2ccccc2)CC(O)=C1C(CCc1ccccc1)c1ccccc1 (centres unmarked) [Example 237]"
  studyTarget: "HIV-1 protease (Human immunodeficiency virus type 1 group M subtype B)"
  unitsSymbol: "%"
  inhibition at 3.3 µM: 60.2
- molecule: "CCC(Cc1ccccc1)c1cc(O)c(C(c2cccc(NC(=O)[C@H](Cc3cn(S(=O)(=O)c4ccc(C)cc4)cn3)NC(=O)OC(C)(C)C)c2)C2CC2)c(=O)o1 (some centres unmarked) [Example 222]"
  studyTarget: "HIV-1 protease (Human immunodeficiency virus type 1 group M subtype B)"
  unitsSymbol: "%"
  inhibition at 3.3 µM: 91
- molecule: "CCC(CCCCl)c1cc(O)c(C(c2ccccc2)C2CC2)c(=O)o1 (centres unmarked) [Example 64]"
  studyTarget: "HIV-1 protease (Human immunodeficiency virus type 1 group M subtype B)"
  unitsSymbol: "%"
  inhibition at 3.3 µM: 103
- molecule: "C=CC(C1=C(O)CC2(CCCCCCC2)OC1=O)c1ccccc1 (centres unmarked) [Example 125]"
  studyTarget: "HIV-1 protease (Human immunodeficiency virus type 1 group M subtype B)"
  unitsSymbol: "%"
  inhibition at 3.3 µM: 45.7
- molecule: "CCC(Cc1ccc(Cl)cc1)c1cc(O)c(C(c2ccccc2)C2CC2)c(=O)o1 (centres unmarked) [Example 155]"
  studyTarget: "HIV-1 protease (Human immunodeficiency virus type 1 group M subtype B)"
  unitsSymbol: "%"
  inhibition at 3.3 µM: 92.8
